Numbers sourced from patent US6613718B2.

Reported CHEAL phytotoxicity rating (0-100 scale) values for a set of molecules
Tested on: lambsquarters (Chenopodium album, CHEAL)
Experiment: Post-emerge greenhouse herbicide activity screening, phytotoxicity rating
Assay type: in vivo
Details: 125 g ai/ha, 14 days after application
Response field accepts a number only; no unit should be typed.

Below, each entry is followed by its recorded CHEAL phytotoxicity rating (0-100 scale) result.
                                   molecule  recorded_result
0  Cn1c(C(F)(F)F)cc(=O)n(-c2cc(Oc3ccccc3)c(Cl)cc2F)c1=S [Compound 1-47]               99
1  Cn1nc(-c2cc(Oc3ncccn3)c(Cl)cc2F)c(=O)n(C)c1=S [Compound 4-1]               99
2  Fc1cc(Cl)c(Oc2ncccn2)cc1-c1nn2c(c1Br)CCCC2 [Compound 6-2]              100
3  Cn1c(C(F)(F)F)cc(=O)n(-c2cc(Oc3ccccc3O)c(C#N)cc2F)c1=S [Compound 1-70]              100

Noted for Cn1c(=S)n(C)c(=O)n(-c2cc(Oc3ccccc3N)c(Cl)cc2F)c1=O [Compound 2-18] : its CHEAL phytotoxicity rating (0-100 scale) reads 70

# CHEAL phytotoxicity rating (0-100 scale) (molecule: Cn1c(C(F)(F)F)cc(=O)n(-c2cc(Oc3ccccc3N)c(Cl)cc2F)c1=S [Compound 1-48] ) is 100

Cn1c(C(F)(F)F)cc(=O)n(-c2cc(Oc3ncccc3C(F)(F)F)c(Cl)cc2F)c1=S [Compound 1-15] has a reported CHEAL phytotoxicity rating (0-100 scale) of 100

The value of CHEAL phytotoxicity rating (0-100 scale) measured for the molecule Fc1cc(Cl)c(Oc2ncccn2)cc1-c1nn2c(c1Cl)CCCC2 [Compound 6-1] turned out to be 100

// CHEAL phytotoxicity rating (0-100 scale) value for N#Cc1c(-c2cc(Oc3ncccn3)c(Cl)cc2F)nn2c1CCCC2 [Compound 6-17] : 100

get_value(item= Cn1c(=S)n(C)c(=O)n(-c2cc(Oc3ccccc3)c(Cl)cc2F)c1=O [Compound 2-16] , readout=CHEAL phytotoxicity rating (0-100 scale)) returns 70
